Recorded melting point for the following compounds

Use the examples below as a reference point.
What value of melting point has been recorded for this entry: NCc1ccc(Nc2n[nH]c3ncnc(Nc4cccc(Cl)c4)c23)cc1
207 to 209 °C

What value of melting point has been recorded for this entry: CCn1c(=O)n(CC(C)(C)O)c(=O)c2[nH]cnc21
217 to 219 °C

What value of melting point has been recorded for this entry: CSC1=NC(=O)C(=Cc2cc(C(C)(C)C)c(O)c(C(C)(C)C)c2)N1C
177 to 179 °C

What value of melting point has been recorded for this entry: O=C(NCCc1ccccc1)Nc1ccc(CN2C(=O)[C@H]3CCC[C@H]3N(C(=O)CCl)c3ccccc32)cc1 (relative stereo)
224 to 226 °C

Continuing:
What value of melting point has been recorded for this entry: CCOC(=O)c1ccc(C#C[Si](C)(C)C)nc1
55 °C

What value of melting point has been recorded for this entry: COc1cccc(C=C2c3ccccc3CCc3ccccc32)c1F
149 °C

What value of melting point has been recorded for this entry: C=CCOc1ccc(S(=O)(=O)c2ccc(C)nc2Nc2c(C)cc(C)cc2C)cc1
138 to 140 °C

What value of melting point has been recorded for this entry: CSc1nc(C)c(CCO)c(=O)n1C
117 to 118 °C

What value of melting point has been recorded for this entry: CC(C)C1(C)N=C(c2nc3ccsc3cc2C(=O)O)NC1=O (stereo not given)
242 to 244 °C

What value of melting point has been recorded for this entry: OCc1ccc2oc(-c3cccs3)nc2c1
158 to 159 °C

###

Recorded melting point for the following compounds

Use the examples below as a reference point.
What value of melting point has been recorded for this entry: CC1Oc2ccc(O)cc2C=C1C=O (stereo unspecified)
107 to 109 °C

What value of melting point has been recorded for this entry: Cc1cccc(Cl)c1N1CCCN(C(C)C)C1=S
135 to 136 °C

What value of melting point has been recorded for this entry: CCCc1cc(NC(=S)N2CCN(c3cc(OC)cc(OC)c3)CC2)c(OC)nc1C
143 to 144 °C

What value of melting point has been recorded for this entry: CC(=O)Nc1ccc(OCCOCCO)cc1
94 °C

What value of melting point has been recorded for this entry: C(=C1CSCC2=C1N=C1SCCN1C2c1ccccc1)c1ccccc1 (stereo unspecified)
195 to 196 °C

Continuing:
What value of melting point has been recorded for this entry: CCOC(=O)/C=C/c1ccc(Cl)c(Cl)n1
102 to 103 °C

What value of melting point has been recorded for this entry: Oc1cnccc1CCCOc1cccnc1Oc1cccc(F)c1
68 to 70 °C

What value of melting point has been recorded for this entry: O=c1ccc2nc3ccccc3sc-2c1
157 to 159 °C

What value of melting point has been recorded for this entry: COc1ccc(Cl)cc1C(=N)Nc1ccc(F)c(NC(=O)/C=C/c2ccccc2Cl)c1
229 to 230 °C

What value of melting point has been recorded for this entry: Clc1cccc(Nc2ncc3cc4ccccc4n3n2)c1
174 to 176 °C

What value of melting point has been recorded for this entry: O=C(NCc1ccc(Cl)cc1)c1cnc2ccc(OCCO)cc2c1O
246 to 248 °C

###

PARAMETER: melting point

What value of melting point has been recorded for this entry: O=CNc1c2c(nc3ccccc13)CCc1cnn(-c3ccccc3)c1-2
> 250 °C

Continuing:
What value of melting point has been recorded for this entry: CN1CCN(c2ccnc3sc(C(N)=O)c(N)c23)CC1
260 to 263 °C

What value of melting point has been recorded for this entry: O=C(O)CCNc1ccccc1CNC(=O)C1Cc2ccccc2N1S(=O)(=O)c1ccc(-c2ccc(F)cc2F)cc1 (stereo not given)
106 to 110 °C

What value of melting point has been recorded for this entry: CC(C)n1nc(-c2c(-c3ccccc3)nn3ccc(OCCCN(C)C)cc23)ccc1=O
125 to 126 °C

What value of melting point has been recorded for this entry: Cc1cc(-n2cncn2)ccc1[N+](=O)[O-]
116 to 117 °C

###

PARAMETER: melting point

Use the examples below as a reference point.
What value of melting point has been recorded for this entry: CCCCCCCN(CC(c1ccccc1)c1ccccc1)C(=O)Nc1ccc(F)cc1F
76 to 78 °C

What value of melting point has been recorded for this entry: COC(=O)C1=C(C)Nc2ccccc2SC1c1ccc(C)cc1 (stereo not given)
148 to 150 °C

What value of melting point has been recorded for this entry: COc1ccc(C2(O)CCCCC2)cn1
74 to 75 °C

Continuing:
What value of melting point has been recorded for this entry: CN(C)CC#CCNC(=O)/C=C\C(=O)O
155 to 157 °C

What value of melting point has been recorded for this entry: COc1ccc(C(=O)Nc2c(Cl)cncc2Cl)c2[nH]c(C(F)(F)F)nc12
300 to 301 °C

What value of melting point has been recorded for this entry: Oc1ccc2c(c1)C[C@H](O)[C@H](O)C2 (relative stereo)
193 to 196 °C

What value of melting point has been recorded for this entry: CCCCC(=O)c1c(-c2ccc3cc(OCC(=O)OCC)ccc3c2)oc2ccc(Cl)cc12
80 to 83 °C

What value of melting point has been recorded for this entry: COC(=O)C1=C(C)NC(C)=C(C(=O)OC)C1c1cc([N+](=O)[O-])ccc1OCCCCNCC(O)COc1ccc(OC)cc1 (stereo not given)
154 to 155 °C

What value of melting point has been recorded for this entry: CCCCCCn1c(C)cc(C)c(C#N)c1=O
63 to 69 °C

What value of melting point has been recorded for this entry: O=C(O)[C@H]1C[C@@H](C(=O)O)c2c(Cl)cc(Cl)cc2N1 (relative stereo)
225 to 227 °C

###

Recorded melting point for the following molecules

Use the examples below as a reference point.
What value of melting point has been recorded for this entry: COC(=O)C(O)C(Sc1ccc2ccccc2c1N)c1ccc(OC)cc1 (stereo not given)
132 to 134 °C

What value of melting point has been recorded for this entry: CC(O)CNCC(O)COc1ccccc1C#N (stereo not given)
108 °C

What value of melting point has been recorded for this entry: Nc1nc(-c2cc(Cl)ccc2Cl)nc(N2CCN(c3ncccn3)CC2)n1
224 to 225 °C

What value of melting point has been recorded for this entry: CCNc1ccc(Cl)nc1
65 to 66 °C

What value of melting point has been recorded for this entry: COC(=O)c1ccc(COc2ccc3cc(-c4ccc(-c5ccccc5)n4Cc4ccc(C(F)(F)F)cc4)ccc3c2)cc1
154 to 155 °C

Continuing:
What value of melting point has been recorded for this entry: CON=C(C(=O)NN)c1ccccc1COc1cc(C)ccc1C
124 to 126 °C

What value of melting point has been recorded for this entry: CCn1c(=O)c2[nH]c(/C=C/c3ccc(OC)c(C)c3)nc2n(CC)c1=O
> 270 °C

What value of melting point has been recorded for this entry: Cc1cccc(-c2cn(C)cc(-c3ccc(Br)cc3)c2=O)c1
201 to 204 °C

What value of melting point has been recorded for this entry: NC(=O)c1sccc1S
116 to 120 °C

What value of melting point has been recorded for this entry: COc1ccc(/C=C(\C#N)c2cc(OC)c(OC)c(OC)c2)cc1[N+](=O)[O-]
158 to 159 °C

###

PARAMETER: melting point

What value of melting point has been recorded for this entry: CC(=O)N1CCC(Nc2ncc3cc(-c4ccccc4C)c(=O)n(C4CCOCC4)c3n2)CC1
235 to 237 °C

###

PARAMETER: melting point (°C)

What value of melting point has been recorded for this entry: O=c1[nH]cnc2cc(C(c3ccccc3)n3ccnc3)ccc12 (stereo unspecified)
205

1 = O=C(NC(=O)c1c(Cl)cccc1Cl)Nc1ccc(OC(F)(F)F)cc1
2 = CCC(CC)C(=O)Nc1ccco1
Which record would sort first by descending melting point, 1 or 2 ? // respond with label for picked entry
1

###

PARAMETER: melting point

What value of melting point has been recorded for this entry: CCOC(=O)c1cc2cc([Si](C)(C)C)ccc2n1Cc1cccc(F)c1
80 to 82 °C

###

PARAMETER: melting point

What value of melting point has been recorded for this entry: CCOCCOc1ccc(-c2nc(C(=O)Nc3nccs3)c(-c3ccc(Cl)cc3)[nH]2)cc1
115 °C

What value of melting point has been recorded for this entry: CCOC(=O)Cc1ccc(N[C@@H](CCC(N)=O)C(=O)O)cc1
180 °C

What value of melting point has been recorded for this entry: COc1ccccc1-c1cccc(-n2cnc(-c3nc(C)no3)c2)c1
97.1 to 101 °C

Continuing:
What value of melting point has been recorded for this entry: CNC(=O)C1=CC2(CCOCC2)Oc2ccc([N+](=O)[O-])cc21
183 to 184 °C

What value of melting point has been recorded for this entry: COc1cc(F)c(C)cc1C(=O)O
125 to 127 °C

What value of melting point has been recorded for this entry: CC1Cc2cc(O)ccc2C2C(F)CC3(C)CC(O)CC3C12 (stereo not given)
239 to 240 °C

What value of melting point has been recorded for this entry: COC(=O)C1=Cc2cccc(C(F)F)c2OCC1
97 to 99 °C

What value of melting point has been recorded for this entry: CCOC(=O)C1CCn2c(cc3cc(OC)ccc32)C1 (stereo not given)
104 to 105 °C

What value of melting point has been recorded for this entry: Cc1ccc(NC(=O)C(C)(C)C)c(-c2cccc(-c3cc(C)ccc3NC(=O)C(C)(C)C)n2)c1
181 to 184 °C

What value of melting point has been recorded for this entry: COc1ccc(C=C2COCC(=Cc3ccc(OC)c(C)c3C)C2=O)c(C)c1C
225 to 227 °C
